This collection of values is drawn from patent US7612211B2.

Target: hTRPV1 (Homo sapiens, UniProt Q8NER1)
Construct: expressed in transfected cells; host or cells: HEK293
Sequence (Q8NER1 whole entry): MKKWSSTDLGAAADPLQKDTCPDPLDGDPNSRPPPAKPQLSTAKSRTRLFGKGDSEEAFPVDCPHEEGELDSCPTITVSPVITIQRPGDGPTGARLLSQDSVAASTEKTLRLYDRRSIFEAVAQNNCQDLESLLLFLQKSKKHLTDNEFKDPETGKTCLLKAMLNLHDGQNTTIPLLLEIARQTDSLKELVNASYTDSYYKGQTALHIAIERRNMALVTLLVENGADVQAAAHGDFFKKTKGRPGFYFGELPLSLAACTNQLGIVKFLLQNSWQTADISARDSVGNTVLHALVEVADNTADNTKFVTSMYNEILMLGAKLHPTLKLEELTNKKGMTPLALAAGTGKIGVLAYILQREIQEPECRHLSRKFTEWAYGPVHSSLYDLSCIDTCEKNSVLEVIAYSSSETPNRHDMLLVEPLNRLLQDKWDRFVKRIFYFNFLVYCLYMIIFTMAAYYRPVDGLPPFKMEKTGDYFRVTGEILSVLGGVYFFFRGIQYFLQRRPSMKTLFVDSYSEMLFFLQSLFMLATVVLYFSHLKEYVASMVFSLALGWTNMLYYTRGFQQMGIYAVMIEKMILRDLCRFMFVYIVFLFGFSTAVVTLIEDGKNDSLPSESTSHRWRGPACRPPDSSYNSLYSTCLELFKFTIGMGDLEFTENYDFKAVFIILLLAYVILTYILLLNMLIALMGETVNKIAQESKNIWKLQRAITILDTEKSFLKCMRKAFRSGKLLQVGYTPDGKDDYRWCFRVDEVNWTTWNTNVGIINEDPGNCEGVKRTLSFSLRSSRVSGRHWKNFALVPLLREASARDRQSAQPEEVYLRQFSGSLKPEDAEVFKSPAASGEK
Test: Human TRPV1 (hTRPV1) functional assay, FLIPR intracellular Ca2+, capsaicin challenge
Assay type: cell-based
Details: test concentration of 0.5 μm; HEK293 cells expressing hTRPV1, capsaicin 0.030 μM challenge; read-out: percent inhibition (symbol a)
measurement-label: inhibition at 0.5 µM (%)
Output spec: scalar in %, unitless text.

Nc1ccc(-c2ccc3[nH]c(COc4ccc(C(F)(F)F)cc4)nc3c2)cc1 [Cpd 124] = 12

INPUT: Quick check: inhibition at 0.5 µM of NS(=O)(=O)c1ccccc1-c1ccc2[nH]c(OCc3ccc(C(F)(F)F)cc3)nc2c1 [Cpd 138] ?
OUTPUT: 18

INPUT: Quick check: inhibition at 0.5 µM of CC(C)(O)c1ccccc1-c1ccc2[nH]c(COc3ccc(S(C)(=O)=O)cc3)nc2c1 [Cpd 25] ?
OUTPUT: 100

INPUT: Quick check: inhibition at 0.5 µM of CNS(=O)(=O)c1ccccc1-c1ccc2[nH]c(COc3ccc(S(=O)(=O)C(F)(F)F)cc3)nc2c1 [Cpd 20] ?
OUTPUT: 100

INPUT: Quick check: inhibition at 0.5 µM of NS(=O)(=O)c1ccccc1-c1ccc2[nH]c(C(F)(F)Oc3ccc(C(F)(F)F)cc3)nc2c1 [Cpd 139] ?
OUTPUT: 99

INPUT: Quick check: inhibition at 0.5 µM of CC(O)c1cccc(-c2ccc3[nH]c(COc4ccc(C(F)(F)F)cc4)nc3c2)c1 (stereo not shown) [Cpd 111] ?
OUTPUT: 18
